- EXPERIMENT SUMMARY: Drug concentration in Wistar rat plasma at 10 mg/kg, po measured after 30 mins by LC-MS/MS method
- Format: ADME, organism-based
ASSAY READOUT: concentration at 0.5 h

Query: What value of measured concentration at 0.5 h is listed for CN(C)c1cnn2ccc(N3CCOCC3)nc12 ?
Response: > 2000 nM
